pIC50: −log10 of the molar value.
Escherichia coli IDI-1 (Escherichia coli, UniProt Q46822) measurements of pIC50, listed per entry.
Sequence (Q46822 whole entry): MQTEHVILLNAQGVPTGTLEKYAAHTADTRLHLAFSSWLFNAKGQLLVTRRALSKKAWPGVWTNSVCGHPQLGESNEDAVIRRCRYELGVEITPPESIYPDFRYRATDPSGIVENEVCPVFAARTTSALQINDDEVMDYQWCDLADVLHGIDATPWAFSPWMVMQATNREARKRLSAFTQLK

{"Compound": "C#CCCOP(=O)(O)OP(=O)(O)O [1-OPP, 3-Butyn-1-yl diphosphate]", "Observed Result": "~3.70"}

Here is another compound to look at.
State pIC50 (Escherichia coli IDI-1 (Escherichia coli, UniProt Q46822)) of C=C=CCOP(=O)(O)OP(=O)(O)O [2-OPP, 2,3-Butadien-1-yl diphosphate] .
~3.70

====

- Target Under Test: Thermus thermophilus IDI-2 (Thermus thermophilus)
Consider the following compounds and their measured IC50 readings.

{"Compound": "C#CCCOP(=O)(O)OP(=O)(O)O [1-OPP, 3-Butyn-1-yl diphosphate]", "Target Under Test": "Thermus thermophilus IDI-2 (Thermus thermophilus)", "Measurement Type": "IC50", "Observed Result": "~50 µM"}

Here is another compound to look at.
Return the recorded IC50 value; entry: C=C=CCOP(=O)(O)OP(=O)(O)O [2-OPP, 2,3-Butadien-1-yl diphosphate]
~50 µM
